# System: YANK2
# Construct: gene STK32B
# TEST_SETTINGS: concentration: 1 μM, replicates: in singlicate; n = 1;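 further: KINOMEscan kinase panel screen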
MEASUREMENT_KIND: %Inh (%)
Numeric answer only, unit % assumed.

Some compounds with recorded %Inh:
query_smiles=COc1ccc2cc(-c3nc(-c4ccccc4C(C)C)[nH]c3-c3ccncc3)ccc2c1 study_system=YANK2 u=% value_reported=62
query_smiles=O=C(Nc1n[nH]c2nc(-c3cccs3)c(Br)cc12)C1CCCC1 study_system=YANK2 u=% value_reported=15
query_smiles=Cc1cnc(N)c(/C=C/c2cncc(C(=O)NCCc3ccc(Cl)cc3Cl)c2)c1.Cl study_system=YANK2 u=% value_reported=0

Form field, %Inh with YANK2, item CC(C)c1ccc(O)cc1Nc1ccnc2ccc(C(F)(F)F)cc12 : 2

* * *

# Test system: FER
# TEST_SETTINGS: concentration: 1 μM, replicates: in singlicate; n = 1
MEASUREMENT_KIND: %Inh (%)
Supply the numeric figure in %, leaving out any unit text.

Reference set (2 entries):
query_smiles=Cc1cnc(N)c(/C=C/c2cncc(C(=O)NCCc3ccc(Cl)cc3Cl)c2)c1.Cl study_system=FER measurement_kind=%Inh value_reported=4
query_smiles=Cc1ccc(NC(=O)Nc2ccc(Cl)c(C(F)(F)F)c2)cc1-c1ccc(C(=O)Nc2ccncc2)cc1 study_system=FER measurement_kind=%Inh value_reported=22

Just so you know, measured %Inh for Nc1nccc(-c2c(-c3ccc(F)cc3)ncn2C2CCN(Cc3ccccc3)CC2)n1 came out at 0

* * *

Measured %Inh accompanies every entry in the list below.
# System: IRAK1
# TEST_SETTINGS: concentration: 1 μM, replicates: in singlicate; n = 1
Please give a number only; it is taken to be in %.

Reference set, count: 5
compound=Nc1ncnc2occ(-c3ccc4c(c3)CCN4C(=O)Cc3cc(F)ccc3F)c12 study_system=IRAK1 value_reported=0
compound=CCn1c(-c2ccccc2)nc2cnccc21 study_system=IRAK1 value_reported=45
compound=CS(=O)(=O)Cc1ccc(Nc2nccc(-c3c(-c4cccc(NC(=O)C5CCCCC5)c4)nn4ncccc34)n2)cc1 study_system=IRAK1 value_reported=24
compound=Cc1ccccc1Cn1ccn2c(=O)cc(N3CCOCC3)nc12 study_system=IRAK1 value_reported=0
compound=Cc1cccc2c(-c3ccncn3)c(-c3ccc(F)cc3)nn12 study_system=IRAK1 value_reported=0

So for Cn1cncc1C(=O)NC1CCN(c2ccnc(Nc3ccc(F)cc3)n2)C1 (stereo not drawn) , the logged %Inh turned out to be 41

* * *

Readings of %Inh for the listed molecules
# Test system: AURKC
# TEST_SETTINGS: concentration: 1 μM, replicates: in singlicate; n = 1
Just the number please, in %, no unit attached.

A selection of reference data follows.
molecule="COC(=O)c1cccc(NC(=O)NC2CCN(c3ccnc(Nc4ccc(OC)cc4)n3)C2)c1 (centres unmarked) [GSK1379746]" study_system=AURKC measurement_kind=%Inh value_reported=28
molecule="CCn1c(-c2ccccc2)nc2cnccc21 [SB-733416]" study_system=AURKC measurement_kind=%Inh value_reported=30
molecule="Cc1nccc(-c2c(-c3ccc(F)cc3)ncn2CCCN2CCOCC2)n1.Cl [SB-282975]" study_system=AURKC measurement_kind=%Inh value_reported=34
molecule="Cc1ccc(NC(=O)c2ccc(Cl)cc2)cc1-c1ccc(C(=O)Nc2ccncc2)cc1 [GSK1398467]" study_system=AURKC measurement_kind=%Inh value_reported=17

Below: the item to evaluate.
Short answer for Cn1cncc1-c1cc2c(Nc3ccc(OCc4ccccc4)cc3)ncnc2cn1 [GW281179] : %Inh was 5

* * *

# Tested on: YANK2
# Construct: gene STK32B
# TEST_SETTINGS: concentration: 1 μM, replicates: in singlicate; n = 1
MEASUREMENT_KIND: %Inh (%)
Write the answer as a number in %, unit excluded.

Record Cn1cnc2c(N)ncnc21 . Reported %Inh: 0

CCCCc1nn2ncccc2c1-c1ccnc(NC2CC2)n1 yielded %Inh of 3

* * *

# Test system: PKN2
# TEST_SETTINGS: concentration: 1 μM, replicates: in singlicate; n = 1
Rule: %Inh below 6% gives 1.0. Equal to or above 6% gives 0.0.

Consider the following illustrative entries.
query_smiles=CCCCc1nn2ncccc2c1-c1ccnc(NC2CC2)n1 label=1.0
query_smiles=COc1ccc(Nc2nccc(NCCNC(=O)Nc3cc(C)ccc3C)n2)cc1 label=1.0

I wonder whether Cn1cncc1-c1cc2c(Nc3ccc(OCc4ccccc4)cc3)ncnc2cn1 has %Inh below 6%. Can you tell?
1.0

Identify whether the molecule CNC(=O)c1ccc(C)c(-n2c(C)cc(OCc3ccc(F)cc3F)c(Br)c2=O)c1 records %Inh below 6%.
0.0

* * *

# Test system: FES
# TEST_SETTINGS: concentration: 1 μM, replicates: in singlicate; n = 1
# %Inh annotations
Numeric only. Scale: %

The cases that follow already have their %Inh on record.
compound=CNC(=O)c1ccc(C)c(-n2c(C)cc(OCc3ccc(F)cc3F)c(Br)c2=O)c1 measurement_kind=%Inh value_reported=0
compound=Cc1ccc(NC(=O)Nc2ccccc2)cc1-c1ccc(C(=O)Nc2ccncc2)cc1 measurement_kind=%Inh value_reported=20

Measured %Inh, COc1ccc(Nc2nccc(N3CCC(NC(=O)C(C)c4ccc(Cl)cc4)C3)n2)cc1 (centres unmarked) : 12

Reported %Inh for FC(F)(F)c1ccccc1-c1cc(-c2c[nH]nc2-c2ccccn2)ccn1 was 0

Documented %Inh of c1ccc(-c2ccnc3[nH]ccc23)cc1 : 0

In plain terms, CC(=O)c1c(C)c2cnc(Nc3ccn(C)n3)nc2n(C2CCCC2)c1=O has a documented %Inh of 0

Entry CS(=O)(=O)CCNCc1nc(-c2ccc3ncnc(Nc4ccc5c(cnn5Cc5ccccc5)c4)c3c2)cs1.Cl.Cl ; %Inh = 0

Entry O=C(Nc1n[nH]c2nc(-c3cccs3)c(Br)cc12)C1CCCC1 , %Inh reported as 18

* * *

# Test system: TESK1
# TEST_SETTINGS: concentration: 1 μM, replicates: in singlicate; n = 1
MEASUREMENT_KIND: %Inh (%)
Lab book: enter the figure in %, no units written.

Sure, the documented %Inh for COc1cccc(C2=C(Nc3cc(Cl)c(O)c(Cl)c3)C(=O)NC2=O)c1 is 0

Query Nc1cccc(-c2ccc3c(N)n[nH]c3c2)n1 yields %Inh of 13

The value of %Inh measured for the compound COc1ccc(Nc2nccc(NCCNC(=O)Nc3cc(C)ccc3C)n2)cc1 turned out to be 7

So, Nc1ncnc2occ(-c3ccc4c(c3)CCN4C(=O)Cc3cc(F)ccc3F)c12 ? Its %Inh was 0

Lookup result for O=c1cc(N2CCOCC2)nc2n(Cc3cccc(Cl)c3Cl)c3ccccc3n12 ; measured %Inh: 17

Consider Cc1cnc(N)c(/C=C/c2cncc(C(=O)NCCc3ccc(Cl)cc3Cl)c2)c1.Cl . Its measured %Inh is 1

%Inh measured on Cc1ccc(NC(=O)Nc2ccccc2F)cc1-c1ccc(C(=O)Nc2ccncc2)cc1 = 2

Sure, the documented %Inh for COc1nccc(-c2c(-c3ccc(F)cc3)ncn2CCCN2CCOCC2)n1 is 8

So for O=c1cc(N2CCOCC2)nc2n(Cc3ccccc3F)ccn12 , the logged %Inh turned out to be 3

* * *

# Test system: RAF1
# TEST_SETTINGS: concentration: 1 μM, replicates: in singlicate; n = 1
Below, each of the compounds is paired with its reported %Inh value.
Write down the numeric answer in % and omit the unit.

compound=c1ccc(-c2ccnc3[nH]ccc23)cc1 study_system=RAF1 u=% value_reported=41
compound=Cn1cnc2c(N)ncnc21 study_system=RAF1 u=% value_reported=0
compound=CS(=O)(=O)Cc1ccc(Nc2nccc(-c3c(-c4cccc(NC(=O)C5CCCCC5)c4)nn4ncccc34)n2)cc1 study_system=RAF1 u=% value_reported=0
compound="COC(=O)C(NC(=O)NC1CCN(c2ccnc(Nc3ccc(F)cc3)n2)C1)c1ccccc1 (centres unmarked)" study_system=RAF1 u=% value_reported=0
compound="COC(=O)C(Cc1ccccc1)NC(=O)NC1CCN(c2ccnc(Nc3ccc(F)cc3)n2)C1 (centres unmarked)" study_system=RAF1 u=% value_reported=13

Query compound follows.
Measured %Inh, O=C1NC(=O)C(c2ccc(Cl)cc2)=C1Nc1cccc(Cl)c1 : 22

* * *

# System: PFTK1
# Construct: gene CDK14
# TEST_SETTINGS: concentration: 1 μM, replicates: in singlicate; n = 1
Decide using %Inh: a value greater than or equal to 20% is true (1), a smaller one is false (0).

# count of solved cases: 3
molecule="CS(=O)(=O)CCNCc1nc(-c2ccc3ncnc(Nc4ccc(OCc5ccccc5)c(Cl)c4)c3c2)cs1.Cl [GW582764]" study_system=PFTK1 label="false (0)"
molecule="COc1cc2ncnc(Nc3cccc(Br)c3)c2cc1OC.Cl [GI230329]" study_system=PFTK1 label="false (0)"
molecule="COc1cccc(CNC(=O)NC2CCN(c3ccnc(Nc4ccc(F)cc4)n3)C2)c1 (stereo not drawn) [GSK1379723]" study_system=PFTK1 label="false (0)"

Answer whether %Inh of CNc1nc(-c2ccc3c(N)n[nH]c3c2)cc(N2C[C@@H](C(=O)NC3CCCCC3)OC[C@H]2C)n1 [GSK2375584] is greater than or equal to 20%.
true (1)

Does CNCc1ccc2nc(NC(=O)c3ccc(C(C)(C)C)cc3)cn2c1 have a reported %Inh of at least 20%?
false (0)
